Test system: Escherichia coli TOP10
method_summary: shrunken log2 fold change of peptide-encoding DNA abundance (4.5 h post-induction vs induction); higher = less antimicrobial activity (less host growth inhibition)
condition_context: time post-induction: 4.5 h; library: site-saturation at positions 5, 18, 19, 20

| residue_string | shrunken log2 fold change |
| --- | --- |
| RRIRMRPPRLPRPRPRPFCKPRP | -0.224 |
| RRIRGRPPRLPRPRPRPFWCPRP | -0.0505 |
| RRIRMRPPRLPRPRPRPMQFPRP | 0.167 |
| RRIRNRPPRLPRPRPRPLKIPRP | -0.233 |
| RRIRPRPPRLPRPRPRPKQFPRP | -0.313 |
| RRIRERPPRLPRPRPRPISSPRP | -0.403 |
| RRIRLRPPRLPRPRPRPNYIPRP | -0.301 |
| RRIRARPPRLPRPRPRPCYRPRP | -0.141 |

---

Test system: Escherichia coli TOP10
method_summary: shrunken log2 fold change of peptide-encoding DNA abundance (4.5 h post-induction vs induction); higher = less antimicrobial activity (less host growth inhibition)
condition_context: time post-induction: 4.5 h; library: site-saturation at positions 5, 18, 19, 20
Could you please classify the records by shrunken log2 fold change using these ranges: group A (below -0.2), group B (-0.2 to below 0.0006), group C (0.0006 or more)

| residue_string | answer_label |
| --- | --- |
| RRIRDRPPRLPRPRPRPNGLPRP | group B |
| RRIRFRPPRLPRPRPRPSSSPRP | group A |
| RRIRDRPPRLPRPRPRPGLCPRP | group C |
| RRIRWRPPRLPRPRPRPVLIPRP | group B |
| RRIRGRPPRLPRPRPRPQPVPRP | group C |
| RRIRDRPPRLPRPRPRPRGTPRP | group A |
| RRIRCRPPRLPRPRPRPCYMPRP | group A |
| RRIRERPPRLPRPRPRPVDTPRP | group C |
| RRIRYRPPRLPRPRPRPSNQPRP | group A |
| RRIRLRPPRLPRPRPRPQHEPRP | group B |
| RRIRLRPPRLPRPRPRPRNKPRP | group B |
| RRIRQRPPRLPRPRPRPKVGPRP | group C |
| RRIRLRPPRLPRPRPRPHRFPRP | group C |
| RRIRSRPPRLPRPRPRPCSWPRP | group B |
| RRIRQRPPRLPRPRPRPFYAPRP | group B |

---

System: Escherichia coli TOP10;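 also: peptides expressed intracellularly from a pBAD plasmid library in pooled LB shake-flask culture, induced with 0.3% L-arabinose, DNA abundance read by NGS, three biological replicates, DESeq2 with apeglm shrinkage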
method_summary: shrunken log2 fold change of peptide-encoding DNA abundance (4.5 h post-induction vs induction); higher = less antimicrobial activity (less host growth inhibition)
condition_context: time post-induction: 4.5 h; library: site-saturation at positions 5, 18, 19, 20
Label T for high-side shrunken log2 fold change (at or above 0.01) and F for low-side shrunken log2 fold change (below it).

| residue_string | answer_label |
| --- | --- |
| RRIRPRPPRLPRPRPRPTEWPRP | T |
| RRIRERPPRLPRPRPRPYMEPRP | T |
| RRIRWRPPRLPRPRPRPNHFPRP | F |
| RRIRQRPPRLPRPRPRPAHEPRP | T |
| RRIRTRPPRLPRPRPRPLEHPRP | T |
| RRIRTRPPRLPRPRPRPMCNPRP | F |
| RRIRTRPPRLPRPRPRPPYSPRP | F |
| RRIRYRPPRLPRPRPRPNPCPRP | F |
| RRIRIRPPRLPRPRPRPFFNPRP | F |
| RRIRQRPPRLPRPRPRPAMIPRP | T |
| RRIRSRPPRLPRPRPRPAVSPRP | T |
| RRIRRRPPRLPRPRPRPSPCPRP | T |
| RRIRERPPRLPRPRPRPSVRPRP | F |
| RRIRFRPPRLPRPRPRPCHWPRP | F |
| RRIRERPPRLPRPRPRPWFLPRP | F |

Origin of measurements: the supplement of paper PMC9112550
